- MEASURED TARGET: human Nav1.7 channels stably expressed in HEK 293 cells (Homo sapiens, UniProt Q15858)
- Construct: expressed in transfected cells; host or cells: HEK 293
- Sequence (Q15858 whole entry): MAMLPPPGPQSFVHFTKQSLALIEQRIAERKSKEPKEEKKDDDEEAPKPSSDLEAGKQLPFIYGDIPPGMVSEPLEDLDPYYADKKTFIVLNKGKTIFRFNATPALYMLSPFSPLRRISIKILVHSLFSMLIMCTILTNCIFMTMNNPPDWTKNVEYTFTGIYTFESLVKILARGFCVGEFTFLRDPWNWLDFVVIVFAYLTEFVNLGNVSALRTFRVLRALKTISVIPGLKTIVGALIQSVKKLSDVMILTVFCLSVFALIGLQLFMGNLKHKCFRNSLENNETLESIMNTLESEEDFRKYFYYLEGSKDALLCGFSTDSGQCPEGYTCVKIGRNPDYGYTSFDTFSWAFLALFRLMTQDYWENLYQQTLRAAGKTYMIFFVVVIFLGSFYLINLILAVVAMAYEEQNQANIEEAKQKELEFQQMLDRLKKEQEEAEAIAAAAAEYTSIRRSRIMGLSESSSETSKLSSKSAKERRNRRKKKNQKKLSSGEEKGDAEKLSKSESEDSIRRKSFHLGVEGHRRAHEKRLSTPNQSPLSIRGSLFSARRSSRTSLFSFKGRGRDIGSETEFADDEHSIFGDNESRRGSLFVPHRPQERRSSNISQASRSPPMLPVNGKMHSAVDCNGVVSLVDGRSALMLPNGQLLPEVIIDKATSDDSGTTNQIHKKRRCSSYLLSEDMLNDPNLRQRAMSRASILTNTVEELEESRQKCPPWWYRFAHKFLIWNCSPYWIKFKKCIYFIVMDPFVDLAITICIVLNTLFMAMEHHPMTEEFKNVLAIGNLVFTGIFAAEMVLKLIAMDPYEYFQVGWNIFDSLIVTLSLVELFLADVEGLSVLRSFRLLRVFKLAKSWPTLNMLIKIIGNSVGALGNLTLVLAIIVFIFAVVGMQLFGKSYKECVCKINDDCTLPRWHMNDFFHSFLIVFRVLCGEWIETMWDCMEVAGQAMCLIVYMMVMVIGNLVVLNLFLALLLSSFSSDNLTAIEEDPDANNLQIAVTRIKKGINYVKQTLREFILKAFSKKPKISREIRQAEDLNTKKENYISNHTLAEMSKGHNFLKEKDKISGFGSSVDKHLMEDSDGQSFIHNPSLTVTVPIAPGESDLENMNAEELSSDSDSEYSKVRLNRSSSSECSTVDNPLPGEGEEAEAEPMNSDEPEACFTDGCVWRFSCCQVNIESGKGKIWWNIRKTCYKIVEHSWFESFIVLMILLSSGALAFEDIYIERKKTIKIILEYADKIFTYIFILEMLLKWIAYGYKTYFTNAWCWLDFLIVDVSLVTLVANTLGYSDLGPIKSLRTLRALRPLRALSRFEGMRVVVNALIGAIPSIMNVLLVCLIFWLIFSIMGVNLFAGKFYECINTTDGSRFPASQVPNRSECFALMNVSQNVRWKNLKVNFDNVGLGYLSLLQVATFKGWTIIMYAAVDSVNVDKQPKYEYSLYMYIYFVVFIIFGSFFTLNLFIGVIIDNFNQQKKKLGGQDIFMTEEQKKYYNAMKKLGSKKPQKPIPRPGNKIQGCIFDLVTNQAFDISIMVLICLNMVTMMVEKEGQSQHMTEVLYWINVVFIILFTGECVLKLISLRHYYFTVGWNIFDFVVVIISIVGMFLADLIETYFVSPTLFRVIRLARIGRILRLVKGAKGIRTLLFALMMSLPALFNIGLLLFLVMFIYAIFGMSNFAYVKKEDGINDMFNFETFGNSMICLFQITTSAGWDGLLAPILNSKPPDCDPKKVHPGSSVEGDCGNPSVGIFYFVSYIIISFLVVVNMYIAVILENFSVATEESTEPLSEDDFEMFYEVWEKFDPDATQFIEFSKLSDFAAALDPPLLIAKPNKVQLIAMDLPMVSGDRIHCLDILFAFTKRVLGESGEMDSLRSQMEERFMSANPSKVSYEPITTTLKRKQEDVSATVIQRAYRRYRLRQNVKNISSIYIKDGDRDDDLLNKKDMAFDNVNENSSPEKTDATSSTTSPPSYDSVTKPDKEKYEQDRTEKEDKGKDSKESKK
- TEST: IonWorks Quattro automated patch-clamp, inactivated state block
- Assay type: cell-based
- EXPERIMENTAL CONTEXT: IonWorks technique; read-out: Nav 1.7 potency
pIC50: −log10 of the molar value.
PARAMETER: pIC50

>>> observed("O=S(=O)(Nc1ncns1)c1cc2cnn(Cc3ccccc3I)c2cc1F")
6.47
>>> observed("O=S(=O)(Nc1ncns1)c1ccc2c(cnn2Cc2ccc(Cl)cc2C2=CCNCC2)c1")
6.11
>>> observed("O=S(=O)(Nc1ncc(Cl)s1)c1cc2cnn(Cc3cccc4c3CNCC4)c2cc1F")
6.48
>>> observed("NC/C=C/c1cc(Cl)ccc1Cn1ncc2cc(S(=O)(=O)Nc3ncns3)ccc21")
6.38
>>> observed("O=S(=O)(Nc1nccs1)c1cc2cnn(Cc3cccc4c3CNCC4)c2cc1F")
7.60
